- target-under-test: FLuc-C-HiBiT (firefly luciferase) (Photinus pyralis, UniProt P08659, form not given/L550V)
- Sequence (P08659 2-550 L550V, form open): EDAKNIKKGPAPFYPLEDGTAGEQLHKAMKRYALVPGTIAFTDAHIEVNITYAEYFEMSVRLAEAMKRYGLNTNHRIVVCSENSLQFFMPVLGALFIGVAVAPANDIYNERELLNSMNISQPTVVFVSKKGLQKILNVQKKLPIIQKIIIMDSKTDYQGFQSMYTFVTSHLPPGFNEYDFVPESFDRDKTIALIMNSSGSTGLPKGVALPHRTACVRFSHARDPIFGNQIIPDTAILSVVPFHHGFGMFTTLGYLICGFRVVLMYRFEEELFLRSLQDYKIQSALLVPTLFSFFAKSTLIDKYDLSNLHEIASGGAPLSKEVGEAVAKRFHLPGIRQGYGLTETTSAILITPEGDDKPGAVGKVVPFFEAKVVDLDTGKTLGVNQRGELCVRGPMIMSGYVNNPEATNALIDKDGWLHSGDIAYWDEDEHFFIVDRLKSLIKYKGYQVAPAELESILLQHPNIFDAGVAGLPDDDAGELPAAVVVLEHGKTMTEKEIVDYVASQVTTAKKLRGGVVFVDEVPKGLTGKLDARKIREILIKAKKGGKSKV
- measurement-notes: SDR assay, FLuc-C-HiBiT
- experimental-parameters: + ATP; SDR max. response; clade S
experimental-endpoint: % Activity (max response, + ATP)

Param item = CSc1ccc(CNC(=O)C2CCN(C(=O)c3ncn4c3COC(c3ccccc3)C4)CC2)cc1 (stereo not drawn) ; retrieve measured % Activity (max response, + ATP). 293.16%

I am curious: what % Activity (max response, + ATP) value has been reported for Cc1ccc(NC(=O)C2CCN(C(=O)c3ncn4c3COC(c3ccc(F)cc3)C4)CC2)c(C)c1 (stereo not drawn) ? 67.53%

Data request, read-out % Activity (max response, + ATP), for COc1ccc(C)cc1NC(=O)C1CCN(C(=O)c2ncn3c2COC(c2ccc(F)cc2)C3)CC1 (stereo not drawn) 128.83%

Report % Activity (max response, + ATP) for CC(C)c1ccc(NC(=O)C2CCN(C(=O)c3ncn4c3COC(c3ccccc3)C4)CC2)cc1 (stereo not drawn) please. 370.54%

Reported % Activity (max response, + ATP) for O=C(NCc1ccc(F)cc1)C1CCN(C(=O)c2ncn3c2COC(c2ccc(Cl)cc2)C3)CC1 (stereo not drawn) : what is it? 32.50%

What measured % Activity (max response, + ATP) goes with COc1ccc(C2Cn3cnc(C(=O)N4CCC(C(=O)NCCc5ccccc5)CC4)c3CO2)cc1 (stereo not drawn) ? 0.00%

Query (molecule): O=C(NCCC1=CCCCC1)C1CCN(C(=O)c2ncn3c2COC(c2ccc(F)cc2)C3)CC1 (stereo not drawn) ; field requested: % Activity (max response, + ATP) 50.67%

Given the molecule COc1ccc(NC(=O)C2CCN(C(=O)c3ncn4c3COC(c3ccccc3)C4)CC2)cc1OC (stereo not drawn) , what is its reported % Activity (max response, + ATP)? 240.56%

Bench note: what % Activity (max response, + ATP) did COc1ccc(C2Cn3cnc(C(=O)N4CCC(C(=O)NC5CCCC5)CC4)c3CO2)cc1 (stereo not drawn) show? 0.00%

Look up % Activity (max response, + ATP) for this molecule: CC(C)c1cccc(NC(=O)C2CCN(C(=O)c3ncn4c3COC(c3ccccc3)C4)CC2)c1 (stereo not drawn) 304.79%

Please give the measured % Activity (max response, + ATP) for this molecule: Cc1ccc(CNC(=O)C2CCN(C(=O)c3ncn4c3COC(c3ccccc3)C4)CC2)cc1 (stereo not drawn) 316.62%

Need % Activity (max response, + ATP) of COc1ccc(C2Cn3cnc(C(=O)N4CCC(C(=O)NCc5ccc(C)cc5)CC4)c3CO2)cc1 (stereo not drawn) , thanks. 0.00%

Fill in the blank: the reported % Activity (max response, + ATP) of O=C(NCc1ccncc1)C1CCN(C(=O)c2ncn3c2COC(c2ccc(F)cc2)C3)CC1 (stereo not drawn) is ____. 157.03%

I have this molecule here, Cc1ccc(C2Cn3cnc(C(=O)N4CCC(C(=O)NCCC5=CCCCC5)CC4)c3CO2)cc1 (stereo not drawn) , and I need its recorded % Activity (max response, + ATP). 75.13%

Name the reported % Activity (max response, + ATP) value associated with the molecule CCc1cccc(NC(=O)C2CCN(C(=O)c3ncn4c3COC(c3ccccc3)C4)CC2)c1 (stereo not drawn) 357.78%

// data source = paper PMC12064818
